System: U-698-M
experiment: Bliss excess, mean over the matrix (fraction); higher = more synergy;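 further: after 72 h of two-drug dosing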
measurement setup: first compound max 1 µM; partner max 3 µM; U-[…]; B-Cell Non-Hodgkin's Lymphoma; 7x7
// reported Bliss excess per item

{"compound": "CN(CCO)CC[C@H](CSc1ccccc1)Nc1ccc(S(=O)(=O)NC(=O)c2ccc(N3CCC([C@@H](O)c4ccccc4-c4ccc(Cl)cc4)CC3)cc2)cc1S(=O)(=O)C(F)(F)F [AZD4320] + C[C@@H](Nc1cc(F)cc(F)c1)c1cc(C(=O)N(C)C)cc2c(=O)cc(N3CCOCC3)oc12 [AZD8186]", "Bliss excess": 0.0074}
{"compound": "CC1(C)CCC(CN2CCN(c3ccc(C(=O)NS(=O)(=O)c4ccc(NCC5CCOCC5)c([N+](=O)[O-])c4)c(Oc4cnc5[nH]ccc5c4)c3)CC2)=C(c2ccc(Cl)cc2)C1 [Venetoclax] + C[C@@H](Nc1cc(F)cc(F)c1)c1cc(C(=O)N(C)C)cc2c(=O)cc(N3CCOCC3)oc12 [AZD8186]", "Bliss excess": -0.0045}
{"compound": "CN(CCO)CC[C@H](CSc1ccccc1)Nc1ccc(S(=O)(=O)NC(=O)c2ccc(N3CCC([C@@H](O)c4ccccc4-c4ccc(Cl)cc4)CC3)cc2)cc1S(=O)(=O)C(F)(F)F [AZD4320] + Cn1cnc2c(F)c(Nc3ccc(Br)cc3Cl)c(C(=O)NOCCO)cc21 [Selumetinib]", "Bliss excess": 0.058}

###

Listed here are compounds together with their documented Bliss excess.
System: VCaP (Prostate Carcinoma)
experiment: Bliss excess, mean over the matrix (fraction); higher = more synergy

{"compound": "CC1(C)CCC(CN2CCN(c3ccc(C(=O)NS(=O)(=O)c4ccc(NCC5CCOCC5)c([N+](=O)[O-])c4)c(Oc4cnc5[nH]ccc5c4)c3)CC2)=C(c2ccc(Cl)cc2)C1 [Venetoclax] + C[C@@H](Nc1cc(F)cc(F)c1)c1cc(C(=O)N(C)C)cc2c(=O)cc(N3CCOCC3)oc12 [AZD8186] (first compound max 1 µM, 7x7, partner max 3 µM)", "Bliss excess": -0.0242}
{"compound": "C[C@@H]1COCCN1c1cc(C2([S@](C)(=N)=O)CC2)nc(-c2ccnc3[nH]ccc23)n1 [AZD6738] + Nc1ccn([C@@H]2O[C@H](CO)[C@@H](O)C2(F)F)c(=O)n1 [Gemcitabine] (first compound max 10 µM, 7x7, partner max 0.3 µM)", "Bliss excess": 0.0509}
{"compound": "Cc1c2c(nn1C)CSCc1cc(n(C)n1)CSc1cc(c3ccccc3c1)OCCCc1c(C(=O)O)n(C)c3c-2c(Cl)ccc13 [AZD5991] + CN(C)CCCOc1ccc(-c2ccc3ncc4c(c3c2)n(C2CCOCC2)c(=O)n4C)cn1 [AZD0156] (first compound max 1 µM, 7x7, partner max 1 µM)", "Bliss excess": 0.0034}

###

// reported Bliss excess per item
Tested on: NY (Osteosarcoma)
experiment: Bliss excess, mean over the matrix (fraction); higher = more synergy

{"compound": "CC1(C)CCC(CN2CCN(c3ccc(C(=O)NS(=O)(=O)c4ccc(NCC5CCOCC5)c([N+](=O)[O-])c4)c(Oc4cnc5[nH]ccc5c4)c3)CC2)=C(c2ccc(Cl)cc2)C1 [Venetoclax] + CS(=O)(=O)CCNCc1ccc(-c2ccc3ncnc(Nc4ccc(OCc5cccc(F)c5)c(Cl)c4)c3c2)o1 [Lapatinib] (first compound max 1 µM, 7x7, partner max 10 µM)", "Bliss excess": -0.0008}
{"compound": "Cc1c2c(nn1C)CSCc1cc(n(C)n1)CSc1cc(c3ccccc3c1)OCCCc1c(C(=O)O)n(C)c3c-2c(Cl)ccc13 [AZD5991] + C1CN(CCC1(C(=O)N[C@@H](CCO)C2=CC=C(C=C2)Cl)N)C3=NC=NC4=C3C=CN4 [Capivasertib] (first compound max 1 µM, 7x7, partner max 3 µM)", "Bliss excess": 0.0079}
